biological target: T1, JCV VP1 mutant S269F (John Cunningham virus (JCV), UniProt P03089 1-354); test: ELISA, plates coated with pseudovirus, purified antibody
T1 construct: also called VP1 S269F; 269m VP1
observable: EC50 (µg/mL)

binder="2A6 (antibody, V domains shown) VH: QVQLQQWGAGLLKPSETLSLTCAVYGGSFSGYYWSWIRQPPGKGLEWIGDINHGGSTNYNPSLKSRVIISVDTSKNQFSLKLSSVTAADTALYYCARGWGGQVAHWFDPWGQGTLGTVSS VL: DIVMTQSPDSLALSLGERATINCKSSQSVLFSSNNQNYLAWYQQKPGQPPKLLIYWASTRESGVPDRFSGSGSGTDFTLTVSSLQAEDVAVYFCQQYYSLPYTFGQGTKLEIK" numeric_readout=0.147
binder="2A11 (antibody, V domains shown) VH: QVQLVESGGGLVKPGGSLRLSCAASGFTFSDHYMSWIRQAPGKGLEWVSYISTSGRTIYYVDSVKGRFTISRDNAKNSLYLQMNSLRAEDMAVYYCASDYYDNVGWNYWGQGALVTVSS VL: DVVLTQSPLSLPVTLGQPASISCRSSQSLVYSDGNTYLNWFQQRPGQSPRRLIYKVSDRDFGVPDRFSGSGSGTDFTLKISRVEAEDVGIYYCMQGTHWPRTFGQGTKVEIK" numeric_readout=0.0068
binder="1E8 (antibody, V domains shown) VH: QVQLVESGGGLVKPGGSLRLSCAASGFTFSDHYMSWIRQAPGKGLEWVSYISTSGSTIYYADSVKGRFTISRDNAKNSLYLQMNSLRAEDTAVYYCASDYYDNSGWNYWGQGTLVTVSS VL: DVVMTQSPLSLPVTLGQPASISCRSSQSLVYSDGNTYLNWFQQRPGQSPRRLIYKVSDRDSGVPDRFSGSGSGTDFTLRISRVEAEDVGVYYCMQGSHWPRTFGQGTKVEIK" numeric_readout=0.022
